Items are presented alongside their recorded two-hybrid beta-galactosidase, percentage of the cdc6/TTC4 interaction.
Biological target: T1, human CDC6, two-hybrid fusion in pEG202 (human, UniProt Q99741 1-560)
T1 construct: CDC6, human; clone from A. Dutta, cloned in the BamH1 and Not1 sites of pEG202; also called HuCDC6; hCDC6; source: yeast two-hybrid fusion
T1 sequence (looked up): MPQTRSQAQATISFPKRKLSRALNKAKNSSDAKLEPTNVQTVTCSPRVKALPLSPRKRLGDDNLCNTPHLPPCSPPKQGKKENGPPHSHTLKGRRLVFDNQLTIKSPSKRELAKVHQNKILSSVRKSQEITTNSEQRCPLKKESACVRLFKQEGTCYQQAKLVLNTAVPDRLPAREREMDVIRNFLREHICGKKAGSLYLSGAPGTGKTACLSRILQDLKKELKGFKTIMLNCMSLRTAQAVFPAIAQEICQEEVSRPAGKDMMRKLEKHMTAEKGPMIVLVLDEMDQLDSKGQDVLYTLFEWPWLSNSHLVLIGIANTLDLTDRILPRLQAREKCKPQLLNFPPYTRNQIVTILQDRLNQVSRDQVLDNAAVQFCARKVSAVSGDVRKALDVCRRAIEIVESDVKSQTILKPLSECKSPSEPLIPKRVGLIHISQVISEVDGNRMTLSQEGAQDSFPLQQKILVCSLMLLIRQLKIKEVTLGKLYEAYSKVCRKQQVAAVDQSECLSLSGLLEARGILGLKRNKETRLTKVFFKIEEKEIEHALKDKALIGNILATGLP
Experiment: two-hybrid; quantitative liquid beta-galactosidase assays; values as a percentage of the cdc6/TTC4 interaction
Details: partners not purified
MEASURED_ENDPOINT: two-hybrid beta-galactosidase, percentage of the cdc6/TTC4 interaction (%)

>  <BINDER>
TTC4-201TG (67IM), two-hybrid fusion in pJG4.5 (natural protein, human, UniProt O95801 1-387, looked up, TTC4, human, with a point mutation reported in melanoma samples, made by site-directed mutagenesis in TTC4 (pJG4.5); also called TTC4 codon 67 I to M; source: yeast two-hybrid fusion) MEQPGQDPTSDDVMDSFLEKFQSQPYRGGFHEDQWEKEFEKVPLFMSRAPSEIDPRENPDLACLQSMIFDEERSPEEQAKTYKDEGNDYFKEKDYKKAVISYTEGLKKKCADPDLNAVLYTNRAAAQYYLGNFRSALNDVTAARKLKPCHLKAIIRGALCHLELKHFAEAVNWCDEGLQIDAKEKKLLEMRAKADKLKRIEQRDVRKANLKEKKERNQNEALLQAIKARNIRLSEAACEDEDSASEGLGELFLDGLSTENPHGARLSLDGQGRLSWPVLFLYPEYAQSDFISAFHEDSRFIDHLMVMFGETPSWDLEQKYCPDNLEVYFEDEDRAELYRVPAKSTLLQVLQHQRYFVKALTPAFLVCVGSSPFCKNFLRGRKVYQIR

>  <EXPERIMENTAL_RESULT>
95

$$$$
>  <BINDER>
TTC4-125TA (42VD), two-hybrid fusion in pJG4.5 (natural protein, human, UniProt O95801 1-387, looked up, TTC4, human, with a point mutation reported in melanoma samples, made by site-directed mutagenesis in TTC4 (pJG4.5); also called TTC4 codon 42 V to D; source: yeast two-hybrid fusion) MEQPGQDPTSDDVMDSFLEKFQSQPYRGGFHEDQWEKEFEKDPLFMSRAPSEIDPRENPDLACLQSIIFDEERSPEEQAKTYKDEGNDYFKEKDYKKAVISYTEGLKKKCADPDLNAVLYTNRAAAQYYLGNFRSALNDVTAARKLKPCHLKAIIRGALCHLELKHFAEAVNWCDEGLQIDAKEKKLLEMRAKADKLKRIEQRDVRKANLKEKKERNQNEALLQAIKARNIRLSEAACEDEDSASEGLGELFLDGLSTENPHGARLSLDGQGRLSWPVLFLYPEYAQSDFISAFHEDSRFIDHLMVMFGETPSWDLEQKYCPDNLEVYFEDEDRAELYRVPAKSTLLQVLQHQRYFVKALTPAFLVCVGSSPFCKNFLRGRKVYQIR

>  <EXPERIMENTAL_RESULT>
95

$$$$
